- Tested on: Monochoria vaginalis, Presl.
- protocol.text: Preemergence weed control under flooded paddy conditions, MOOVA (Monochoria)
- Assay type: in vivo
- experimental.setup: 0.2500 kg/ha; preemergence, flooded paddy; rated three to four weeks after treatment

- smiles.str: "Cn1c(C(F)(F)F)cc(=O)n(-c2ccc3snc(C(C)(C)C(N)=O)c3c2)c1=O"
  MOOVA herbicidal rating: 9.0
- smiles.str: "COCC(=O)OCc1nsc2ccc(-n3c(=O)cc(C(F)(F)F)n(C)c3=O)cc12"
  MOOVA herbicidal rating: 9.0
- smiles.str: "Cn1c(C(F)(F)F)cc(=O)n(-c2ccc3snc(COC(=O)C(C)(C)C)c3c2)c1=O"
  MOOVA herbicidal rating: 8.0
- smiles.str: "C=CCOC(=O)C(C)(C)c1nsc2ccc(-n3c(=O)cc(C(F)(F)F)n(C)c3=O)cc12"
  MOOVA herbicidal rating: 9.0
- smiles.str: "CN(C)S(=O)(=O)NC(=O)c1nsc2ccc(-n3c(=O)cc(C(F)(F)F)n(C)c3=O)cc12"
  MOOVA herbicidal rating: 9.0
- smiles.str: "CC(C)c1nsc2ccc(-n3c(=O)cc(C(F)(F)F)n(C)c3=O)cc12"
  MOOVA herbicidal rating: 9.0
- smiles.str: "Cn1c(C(F)(F)F)cc(=O)n(-c2ccc3snc(C(=O)NS(N)(=O)=O)c3c2)c1=O"
  MOOVA herbicidal rating: 7.0

* * *

- Test system: Sagittaria pygmaea, L.
- protocol.text: Postemergence weed control under flooded paddy conditions, SAGPY (Arrowhead (Pygmaea))
- Assay type: in vivo
- experimental.setup: Rate 0.0620 kg/ha, rated three to four weeks after treatment
compounds and their reported herbicidal effect rating, SAGPY

- smiles.str: "C#CCOC(=O)C(C)(C)Oc1ccc(C)cc1-c1nsc2ccc(-n3c(=O)cc(C(F)(F)F)n(C)c3=O)cc12"
  tested.target: "Sagittaria pygmaea, L."
  herbicidal effect rating, SAGPY: 0.0
- smiles.str: "COCc1nsc2cc(F)c(-n3c(=O)cc(C(F)(F)F)n(C)c3=O)cc12"
  tested.target: "Sagittaria pygmaea, L."
  herbicidal effect rating, SAGPY: 9.0
- smiles.str: "CC(C)S(=O)(=O)NC(=O)c1nsc2ccc(-n3c(=O)cc(C(F)(F)F)n(C)c3=O)cc12"
  tested.target: "Sagittaria pygmaea, L."
  herbicidal effect rating, SAGPY: 0.0
- smiles.str: "COc1ccc(OC)c(-c2nsc3ccc(-n4c(=O)cc(C(F)(F)F)n(C)c4=O)cc23)c1"
  tested.target: "Sagittaria pygmaea, L."
  herbicidal effect rating, SAGPY: 2.0

* * *

- Test system: Oryza sativa, (L.) Tebonnet
- protocol.text: Rice tolerance to post-transplant applications under flooded paddy conditions (Example 187), ORYSAT (Rice, Tebonnet)
- experimental.setup: 0.0320 kg/ha, rated three to four weeks after treatment
readout: ORYSAT herbicidal rating (rice tolerance)

- smiles.str: "Cn1c(C(F)(F)F)cc(=O)n(-c2cc3c(C(=O)NS(=O)(=O)Cc4ccccc4)nsc3cc2F)c1=O"
  tested.target: "Oryza sativa, (L.) Tebonnet"
  obs.value: 0.0
- smiles.str: "COC(=O)c1nsc2cc(F)c(-n3c(=O)cc(C(F)(F)F)n(C)c3=O)cc12"
  tested.target: "Oryza sativa, (L.) Tebonnet"
  obs.value: 9.0
- smiles.str: "Cn1c(C(F)(F)F)cc(=O)n(-c2ccc3snc(C(=O)NS(=O)(=O)Cc4ccc(Cl)cc4)c3c2)c1=O"
  tested.target: "Oryza sativa, (L.) Tebonnet"
  obs.value: 3.0
- smiles.str: "CC(C)N(C(C)C)S(=O)(=O)NC(=O)c1nsc2ccc(-n3c(=O)cc(C(F)(F)F)n(C)c3=O)cc12"
  tested.target: "Oryza sativa, (L.) Tebonnet"
  obs.value: 2.0

Source of measurements: patent EP0908457B1
